Source: paper PMC11114116

Reported pEC50 values for the following compounds.
- Study Target: UniProtKB P07148
- Sequence (P07148 whole entry): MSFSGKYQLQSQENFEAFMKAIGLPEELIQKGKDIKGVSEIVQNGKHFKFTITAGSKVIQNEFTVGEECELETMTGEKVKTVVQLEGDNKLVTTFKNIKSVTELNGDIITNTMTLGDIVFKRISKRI
- Protocol: DAUDA displacement assay for hFABP1 binding
Note on units: pEC50 is unitless, being -log10 of a concentration expressed in mol/L.

Task: Given Cc1ccc(C)c(OCCCC(C)(C)C(=O)O)c1 , state its recorded pEC50.
Output: 5.25

Consider now this further compound.
Task: Given CCCCC/C=C\C/C=C\C/C=C\C/C=C\CCCC(=O)O , state its recorded pEC50.
Output: 6.38

###

- Study Target: CYP2C9 (Homo sapiens, UniProt P11712)
- Sequence (P11712 whole entry): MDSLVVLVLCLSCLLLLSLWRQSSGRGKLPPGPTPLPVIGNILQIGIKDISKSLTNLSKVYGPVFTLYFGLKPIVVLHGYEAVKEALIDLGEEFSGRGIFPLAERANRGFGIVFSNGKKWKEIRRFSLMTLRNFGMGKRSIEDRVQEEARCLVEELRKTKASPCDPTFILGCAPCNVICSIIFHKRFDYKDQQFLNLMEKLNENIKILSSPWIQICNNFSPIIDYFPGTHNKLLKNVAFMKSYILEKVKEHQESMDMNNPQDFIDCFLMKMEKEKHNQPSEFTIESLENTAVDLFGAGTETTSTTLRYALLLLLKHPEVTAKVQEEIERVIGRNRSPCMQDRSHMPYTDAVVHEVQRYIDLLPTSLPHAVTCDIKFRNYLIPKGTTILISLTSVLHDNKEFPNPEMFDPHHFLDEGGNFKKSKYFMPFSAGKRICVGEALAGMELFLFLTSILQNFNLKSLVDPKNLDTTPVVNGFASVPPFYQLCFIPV
- Assay type: in vitro ADME
- Reported Conditions: CYP2C9 Supersomes (recombinant CYP2C9) with 20 μM hFABP1, pH 7.4, Km,apparent for 4'-OH-diclofenac formation, +FABP1, nominal diclofenac concentrations, 20 μM hFABP1, 1 nM CYP2C9 Supersomes
Measured Quantity: Km at 10 min (µM)
Numbers only here, please. The scale is µM.

Task: Hello, I am looking for reported Km at 10 min with CYP2C9 (Homo sapiens, UniProt P11712) for O=C(O)Cc1ccccc1Nc1c(Cl)cccc1Cl [Diclofenac, diclofenac] . Could you help?
Output: 5.8
